System: GST enzyme isolated from blueberry fruits (Vaccinium arctostaphylos L.)
experiment: In vitro inhibition of purified blueberry fruit GST by pesticides
Format: biochemical
condition-set: from activity (%) - pesticide concentration graphs, minimum five concentrations
pIC50: −log10 of the molar value. Where a name gives a salt, the structure may show the parent alone.
Entry flag: TRUE if pIC50 reaches 3; FALSE if it does not.

Here's what some known entries look like.
compound: CC1(C)C(C=C(Cl)Cl)C1C(=O)OC(C#N)c1cccc(Oc2ccccc2)c1 (stereo not drawn)
label-class: TRUE
//
compound: O=[N+]([O-])NC1=NCCN1Cc1ccc(Cl)nc1
label-class: TRUE
//
compound: O=C(O)COc1ccc(Cl)cc1Cl
label-class: TRUE

# bool: pIC50 of O=C(O)CNCP(=O)(O)O [Glifosat- izopropilamine salt, glyphosate isopropylamine salt] >= 3
TRUE

# bool: pIC50 of `CC(=NC#N)N(C)Cc1ccc(Cl)nc1` >= 3
FALSE

# bool: pIC50 of COP(=O)(OC)OC=C(Cl)Cl [Dichlorvos, 2,2-dichlorovinyl dimethyl phosphate] >= 3
TRUE

Values compiled from paper PMC6460380.
